- Assay Text: Pharmacokinetics of Compound 1 in combination with MK-3475 in subjects with various cancers
- Type: in vivo, human
- Condition Label: human, plasma, oral, 50 mg, Cohort 4 (MEL), 50 mg BID, steady state C1D8, geometric mean
Recorded Endpoint: Cmax (nM)
Numbers only here, please. The scale is nM.

Cmax measured on NS(=O)(=O)NCCNc1nonc1C(=NO)Nc1ccc(F)c(Br)c1 [Compound 1] = 403

----------
- Assay Text: Pharmacokinetics of Compound 1 in combination with MK-3475 in subjects with various cancers
- Format: in vivo, human
- Condition Label: human, plasma, oral, 100 mg, by dose, 100 mg BID, steady state C1D8, geometric mean; read-out: AUC0-12 h (converted)
- Experimental: The subjects were not limited to a specific cancers and study include subjects with various cancers. […] One treatment cycle consisted of 21 days. […] The RP2D was selected from the evaluated safety expansions. […] Pharmacokinetic samples were obtained at the visits of Cycle 1 Day 1, Cycle 1 Day 8 and Cycle 2 Day 1. […] The exact date and time of the PK blood draws were recorded in the eCRF along with the date and time of the last dose of study drug and details of the last meal preceding the blood draw. […]
Recorded Endpoint: AUC(0-t) (µM·h)
Numbers only here, please. The scale is µM·h.

AUC(0-t) measured on NS(=O)(=O)NCCNc1nonc1C(=NO)Nc1ccc(F)c(Br)c1 = 3.57

Where do the numbers come from? From patent US20180353483A1.
